- assay.name: UV-vis absorption spectra and molar absorptivity coefficient
- Assay type: physicochemical
- particulars: 20 μM
reported.metric: εAbs (molar absorptivity coefficient) (M⁻¹ cm⁻¹)

chemical_string=CN(C)c1ccc(-c2nc3c([nH]2)c2c(c4ccccc43)OC(C)(C)CC2)cc1 reported_metric="εAbs (molar absorptivity coefficient)" result_units="M⁻¹ cm⁻¹" observed=27100
chemical_string=CC1(C)CCc2c(c3ccccc3c3nc(-c4cccc5ccccc45)[nH]c23)O1 reported_metric="εAbs (molar absorptivity coefficient)" result_units="M⁻¹ cm⁻¹" observed=15700
chemical_string=CC1(C)CCc2c(c3ccccc3c3nc(-c4ccccc4)[nH]c23)O1 reported_metric="εAbs (molar absorptivity coefficient)" result_units="M⁻¹ cm⁻¹" observed=24300
chemical_string=CC1(C)CCc2c(c3ccccc3c3nc(-c4ccc(O)cc4)[nH]c23)O1 reported_metric="εAbs (molar absorptivity coefficient)" result_units="M⁻¹ cm⁻¹" observed=14800

====

Recorded melting point by entry
reported.metric: melting point

chemical_string=CC1(C)CCc2c(c3ccccc3c3nc[nH]c23)O1 observed="255 to 259 °C"
chemical_string=CC1(C)CCc2c(c3ccccc3c3nc(-c4ccc([N+](=O)[O-])cc4)[nH]c23)O1 observed="259 to 260 °C"
chemical_string=CC1(C)CCc2c(c3ccccc3c3nc(-c4ccccc4)[nH]c23)O1 observed="278 to 279 °C"
chemical_string=CN(C)c1ccc(-c2nc3c([nH]2)c2c(c4ccccc43)OC(C)(C)CC2)cc1 observed="182 to 184 °C"
chemical_string=CC1(C)CCc2c(c3ccccc3c3nc(-c4ccccc4[N+](=O)[O-])[nH]c23)O1 observed="139 to 141 °C"

====

- assay.name: Fluorescence emission spectrum and Stokes shift
- Type: physicochemical
- particulars: difference between absorption and emission wavelengths; solvent per compound as in Table 1
reported.metric: ΔST (Stokes shift) (nm)

molecule="CN(C)c1ccc(-c2nc3c([nH]2)c2c(c4ccccc43)OC(C)(C)CC2)cc1 [IM5]" observed=54
molecule="CC1(C)CCc2c(c3ccccc3c3nc(-c4cccc5ccccc45)[nH]c23)O1 [IM3]" observed=103
molecule="CC1(C)CCc2c(c3ccccc3c3nc[nH]c23)O1 [IM1]" observed=50
molecule="CC1(C)CCc2c(c3ccccc3c3nc(-c4ccc(O)cc4)[nH]c23)O1 [IM4]" observed=49
molecule="CC1(C)CCc2c(c3ccccc3c3nc(-c4ccccc4[N+](=O)[O-])[nH]c23)O1 [IM7]" observed=48
molecule="CC1(C)CCc2c(c3ccccc3c3nc(-c4ccccc4)[nH]c23)O1 [IM2]" observed=60

====

- assay.name: UV-vis absorption spectra and molar absorptivity coefficient
- Format: physicochemical
- particulars: 20 μM; solvent per compound: IM1, IM3, IM4, IM5 CH2Cl2; IM2 DMSO; IM6 CH3OH; IM7 hexane
reported.metric: λmax

chemical_string=CC1(C)CCc2c(c3ccccc3c3nc(-c4cccc5ccccc45)[nH]c23)O1 observed="354 nm"
chemical_string=CC1(C)CCc2c(c3ccccc3c3nc(-c4ccccc4)[nH]c23)O1 observed="342 nm"
chemical_string=CC1(C)CCc2c(c3ccccc3c3nc(-c4ccc(O)cc4)[nH]c23)O1 observed="344 nm"
chemical_string=CN(C)c1ccc(-c2nc3c([nH]2)c2c(c4ccccc43)OC(C)(C)CC2)cc1 observed="368 nm"
chemical_string=CC1(C)CCc2c(c3ccccc3c3nc[nH]c23)O1 observed="316 nm"
chemical_string=CC1(C)CCc2c(c3ccccc3c3nc(-c4ccc([N+](=O)[O-])cc4)[nH]c23)O1 observed="411 nm"
chemical_string=CC1(C)CCc2c(c3ccccc3c3nc(-c4ccccc4[N+](=O)[O-])[nH]c23)O1 observed="337 nm"
